Target: 5-HT1A receptor (Homo sapiens)
Sequence (P08908 1-422): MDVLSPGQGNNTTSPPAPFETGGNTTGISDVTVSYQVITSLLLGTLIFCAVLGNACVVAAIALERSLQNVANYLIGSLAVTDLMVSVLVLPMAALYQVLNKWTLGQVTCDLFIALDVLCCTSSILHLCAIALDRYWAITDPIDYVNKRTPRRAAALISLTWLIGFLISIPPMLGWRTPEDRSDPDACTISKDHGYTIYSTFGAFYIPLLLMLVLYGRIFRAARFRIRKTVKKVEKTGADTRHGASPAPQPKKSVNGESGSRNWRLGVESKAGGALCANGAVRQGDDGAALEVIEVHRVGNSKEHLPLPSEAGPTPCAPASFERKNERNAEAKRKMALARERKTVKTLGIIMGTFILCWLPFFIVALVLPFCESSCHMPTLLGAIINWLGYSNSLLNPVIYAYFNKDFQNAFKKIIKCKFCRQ
Assay: 5-HT1A receptor cAMP agonist test (HEK293 cell line stably expressing 5-HT1A receptor)
Conditions: cAMP agonist assay with forskolin, HEK293 cells stably expressing 5-HT1A
// assign label 1 if EC50 falls strictly below 2 µM, else label 0 (ties count as label 0)

Example cases with answers are listed next.
CNCC1OCC2(CCC2)c2ccsc21 (stereo not shown) : label 1
[2H]C([2H])([2H])NCC1OCC2(CC2)c2sccc21 (stereo not shown) : label 1
CNCC1OCC2(CC2)c2c(C)csc21 (stereo not shown) : label 1

Consider now this further compound.
Inquiry: Hello, is EC50 of the following compound strictly smaller than 2 µM? `[2H]C([2H])([2H])NC[C@@H]1OCC2(CC2)c2sccc21`
Reply text: label 1

* * *

Known EC50 of a selection of compounds
Target: UniProtKB Q96RJ0
Sequence (Q96RJ0 whole entry): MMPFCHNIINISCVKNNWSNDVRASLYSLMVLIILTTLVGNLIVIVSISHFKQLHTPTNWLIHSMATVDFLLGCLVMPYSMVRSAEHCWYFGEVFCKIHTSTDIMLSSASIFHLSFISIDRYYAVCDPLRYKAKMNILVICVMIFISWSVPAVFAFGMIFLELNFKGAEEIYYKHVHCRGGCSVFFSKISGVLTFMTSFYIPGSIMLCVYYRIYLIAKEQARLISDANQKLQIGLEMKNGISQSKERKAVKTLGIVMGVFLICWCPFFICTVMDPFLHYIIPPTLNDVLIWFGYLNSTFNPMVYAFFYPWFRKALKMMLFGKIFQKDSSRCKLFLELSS
Experiment: TAAR1 receptor cAMP agonist test (HEK293 cell line stably expressing TAAR1 receptor)
Details: cAMP agonist assay, HEK293 cells stably expressing TAAR1
Method: 1.1 Experimental Materials: The cAMP detection lit was purchased from Cisbio; the […] cell line stably expressing TAAR1 receptor was constructed by Shanghai Singing Biotechnology Co., Ltd.; IBMX was purchased from Sigma; Phenethylamine (PEA); ProxiPlate-384 well plate was purchased from PerkinElmer. […] The EC50 values of the compounds were calculated using the four-parameter fitting model log(agonist)vs.response—Variable slope (four parameters) in GraphPad Prism.
Numeric only. Scale: nM

# annotated cases, reported EC50 shown
CNC[C@@H]1OCC2(CC2)c2ccsc21 (single isomer, unassigned) : 704
[2H]C([2H])([2H])NCC1OCC2(CC2)c2ccsc21 (stereo not shown) : 1730
CNC[C@H]1OCC2(CC2)c2sccc21 (single isomer, unassigned) : 795
[2H]C([2H])([2H])NC[C@H]1OCC2(CC2)c2sccc21 : 806
CNCC1OCC2(CC2)c2sccc21 (stereo not shown) : 1670
CNCC1OCC2(CC2)c2ccsc21 (stereo not shown) : 1630

Inquiry: So what EC50 did [2H]C([2H])([2H])NCC1OCC2(CC2)c2sccc21 (stereo not shown) get with UniProtKB Q96RJ0?
Reply text: 1320

* * *

Target: 5-HT1A receptor (Homo sapiens)
Construct: expressed in transfected cells
Sequence (P08908 1-422): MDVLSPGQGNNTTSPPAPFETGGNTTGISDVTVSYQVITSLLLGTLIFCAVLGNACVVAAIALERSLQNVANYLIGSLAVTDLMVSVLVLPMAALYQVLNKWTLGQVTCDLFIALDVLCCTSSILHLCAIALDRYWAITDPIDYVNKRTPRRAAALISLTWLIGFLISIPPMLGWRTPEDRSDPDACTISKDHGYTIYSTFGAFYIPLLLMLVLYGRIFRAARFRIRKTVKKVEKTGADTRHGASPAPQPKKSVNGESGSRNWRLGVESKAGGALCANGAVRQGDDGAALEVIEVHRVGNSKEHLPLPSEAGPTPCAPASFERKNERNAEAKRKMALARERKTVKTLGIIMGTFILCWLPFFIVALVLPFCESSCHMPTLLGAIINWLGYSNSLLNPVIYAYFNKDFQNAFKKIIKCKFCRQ
Test: 5-HT1A receptor cAMP agonist test (HEK293 cell line stably expressing 5-HT1A receptor)
Assay type: cell-based
Conditions: maximal activation rate relative to Serotonin positive control
Criterion: 5-HT1A Max Act % meeting or surpassing 90%. Met: 1.0. Not met: 0.0.

Example cases with answers are listed next.
CNCC1OCC2(CCC2)c2ccsc21 (stereo not shown) : 1.0
CCNCC1OCC2(CC2)c2ccsc21 (stereo not shown) : 1.0
CNCC1OCC2(CC2)c2sccc21 (stereo not shown) : 1.0
[2H]C([2H])([2H])NCC1OCC2(CC2)c2sccc21 (stereo not shown) : 0.0

Inquiry: Please tell me: is the molecule [2H]C([2H])([2H])NCC1OCC2(CC2)c2ccsc21 (stereo not shown) at or over 90% in terms of 5-HT1A Max Act %?
Reply text: 1.0

Inquiry: Please tell me: is the molecule CNCC1OCC2(CC2)c2c(C)csc21 (stereo not shown) at or over 90% in terms of 5-HT1A Max Act %?
Reply text: 1.0

Inquiry: Please tell me: is the molecule `[2H]C([2H])([2H])NC[C@@H]1OCC2(CC2)c2sccc21` at or over 90% in terms of 5-HT1A Max Act %?
Reply text: 0.0

Inquiry: Please tell me: is the molecule c1cc2c(s1)C(CN1CCC1)OCC21CC1 (stereo not shown) at or over 90% in terms of 5-HT1A Max Act %?
Reply text: 0.0
